The following molecules are listed with their measured MIC values.
Test system: Aspergillus nidulans
protocol: Antifungal activity against Aspergillus nidulans ATCC 38163 incubated for 48 hrs by CLSI M38-A2 protocol based method
Assay type: functional
protocol conditions: ATCC 38163, 48 h, read-out: MIC100
The answer is to be given in µM; state only the numeric part.

CCCCCCC(O)(Cn1cncn1)c1ccccc1F (configuration not stated) | 1.6
C[C@@H]1[C@H](O)[C@@H](C)/C=C/C=C/C=C/C=C/C=C/C=C/C=C/[C@H](O[C@@H]2O[C@H](C)[C@@H](O)[C@H](N)[C@@H]2O)C[C@@H]2O[C@](O)(C[C@@H](O)C[C@@H](O)[C@H](O)CC[C@@H](O)C[C@@H](O)CC(=O)O[C@H]1C)C[C@H](O)[C@H]2C(=O)O | 16.9
CCCCCC(O)(Cn1cncn1)c1ccc(Cl)cc1 (configuration not stated) | 26.5

In: # get_value(readout='MIC', item= CCCCCCC(O)(Cn1cncn1)c1ccc(Cl)cc1Cl (configuration not stated) )
Out: 1.4

In: # get_value(readout='MIC', item= CCCCCCCCCCC(O)(Cn1cncn1)c1ccc(F)cc1F (configuration not stated) )
Out: 0.66

In: # get_value(readout='MIC', item= CC(O)(Cn1cncn1)c1ccc(Cl)cc1Cl (configuration not stated) )
Out: 7.2

---

The following compounds are listed with their measured MIC50 values.
System: Candida albicans
protocol: Antifungal activity against ITC and FLC-susceptible Candida albicans ATCC MYA-2876 incubated for 48 hrs by modified CLSI M27-A3 protocol based method
Format: functional
protocol conditions: ATCC MYA-2876, 48 h
The answer is to be given in µM; state only the numeric part.

CCC(C)n1ncn(-c2ccc(N3CCN(c4ccc(OCC5COC(Cn6cncn6)(c6ccc(Cl)cc6Cl)O5)cc4)CC3)cc2)c1=O (centres undefined) | 11.1

In: # get_value(readout='MIC50', item= CCCCCC(O)(Cn1cncn1)c1cccc(F)c1 (centres undefined) )
Out: 14.1

In: # get_value(readout='MIC50', item= CCCC(O)(Cn1cncn1)c1ccc(F)cc1F (centres undefined) )
Out: 58.4

In: # get_value(readout='MIC50', item= CC(O)(Cn1cncn1)c1ccc(Cl)cc1Cl (centres undefined) )
Out: 28.7

In: # get_value(readout='MIC50', item= CCCCCCC(O)(Cn1cncn1)c1ccc(Cl)cc1 (centres undefined) )
Out: 25.3

In: # get_value(readout='MIC50', item= CCCCCC(O)(Cn1cncn1)c1ccccc1F (centres undefined) )
Out: 3.5

In: # get_value(readout='MIC50', item= CCCCCCC(O)(Cn1cncn1)c1ccc(Cl)cc1Cl (centres undefined) )
Out: 2.8

In: # get_value(readout='MIC50', item= CCCCCCC(O)(Cn1cncn1)c1ccccc1F (centres undefined) )
Out: 3.3

In: # get_value(readout='MIC50', item= CCCCCC(O)(Cn1cncn1)c1ccc(F)cc1 (centres undefined) )
Out: 28.1

---

protocol: Selectivity index, ratio of EC50 for toxicity in human BEAS2B cells to MIC50 for antifungal activity against ITC and FLC-resistant Candida albicans ATCC MYA-1003
Format: cell-based
protocol conditions: BEAS-2B cells, read-out: Selectivity Index
The following compounds are listed with their measured selectivity ratio values.
Output: the number by itself.

Previously resolved entries follow.
CCCCCCCCC(O)(Cn1cncn1)c1ccc(F)cc1F (configuration not stated) | 7
CCCCCCC(O)(Cn1cncn1)c1ccc(Cl)cc1Cl (configuration not stated) | 29
CC[C@@H]([C@H](C)O)n1ncn(-c2ccc(N3CCN(c4ccc(OC[C@@H]5CO[C@@](Cn6cncn6)(c6ccc(F)cc6F)C5)cc4)CC3)cc2)c1=O | 2
CCCCCCC(O)(Cn1cncn1)c1ccc(F)cc1F (configuration not stated) | 16
CCCCCC(O)(Cn1cncn1)c1ccc(Cl)cc1 (configuration not stated) | 16
CCCCCC(O)(Cn1cncn1)c1ccccc1F (configuration not stated) | 8
CCCCCCC(O)(Cn1cncn1)c1ccccc1F (configuration not stated) | 8
CCCCCCC(O)(Cn1cncn1)c1ccc(F)cc1 (configuration not stated) | 4

In: # get_value(readout='selectivity ratio', item= CCCCCC(O)(Cn1cncn1)c1ccccc1Cl (configuration not stated) )
Out: 4

In: # get_value(readout='selectivity ratio', item= CCCCCC(O)(Cn1cncn1)c1ccc(Cl)cc1Cl (configuration not stated) )
Out: 32

In: # get_value(readout='selectivity ratio', item= CCCCCCC(O)(Cn1cncn1)c1ccccc1Cl (configuration not stated) )
Out: 4

In: # get_value(readout='selectivity ratio', item= CCCCCC(O)(Cn1cncn1)c1ccc(F)cc1 (configuration not stated) )
Out: 1

In: # get_value(readout='selectivity ratio', item= CCCC(O)(Cn1cncn1)c1ccc(Cl)cc1Cl (configuration not stated) )
Out: 32

In: # get_value(readout='selectivity ratio', item= CCCCCCC(O)(Cn1cncn1)c1ccc(Cl)cc1 (configuration not stated) )
Out: 16

In: # get_value(readout='selectivity ratio', item= CCCCC(O)(Cn1cncn1)c1ccc(Cl)cc1Cl (configuration not stated) )
Out: 32

In: # get_value(readout='selectivity ratio', item= CCCCC(O)(Cn1cncn1)c1ccc(F)cc1F (configuration not stated) )
Out: 9

In: # get_value(readout='selectivity ratio', item= CCCCCC(O)(Cn1cncn1)c1ccc(F)cc1F (configuration not stated) )
Out: 16
